TARGET ENTITY: Cytochrome P450 2D6 (Homo sapiens) (UniProt P10635)
Sequence (P10635 whole entry, looked up): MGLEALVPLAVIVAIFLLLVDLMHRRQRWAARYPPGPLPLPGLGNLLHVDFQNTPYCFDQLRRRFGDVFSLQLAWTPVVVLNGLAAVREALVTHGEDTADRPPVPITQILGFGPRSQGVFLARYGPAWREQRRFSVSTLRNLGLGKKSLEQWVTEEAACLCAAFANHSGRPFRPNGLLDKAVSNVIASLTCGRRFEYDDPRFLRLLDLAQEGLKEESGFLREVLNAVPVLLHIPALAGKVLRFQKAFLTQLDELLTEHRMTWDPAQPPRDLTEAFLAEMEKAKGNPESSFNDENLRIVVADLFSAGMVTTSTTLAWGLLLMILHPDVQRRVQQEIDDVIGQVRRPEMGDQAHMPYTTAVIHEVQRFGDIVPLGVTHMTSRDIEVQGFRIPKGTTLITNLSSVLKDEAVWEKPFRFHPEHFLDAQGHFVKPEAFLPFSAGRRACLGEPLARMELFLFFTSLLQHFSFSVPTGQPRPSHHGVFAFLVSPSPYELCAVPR
EXPERIMENTAL DETAILS: Cytochrome panel assay with activity outcomes
CONDITION SUMMARY: recombinant CYP, pro-luciferin dealkylation, luminescence, p450-cyp2d6; series mostly up to 57.1 µM
Among all 16,000 compounds or so, about 2,600 (16%) were called active. Inconclusive results (about 20%) are left out. The call rests on the fitted dose curve; in most records, active means well fitted curve in the direction sought with a large enough effect; inconclusive means small, poorly fitted or top-dose-only effect, or effect the other way; inactive means no such curve, though single readings can be large or run the other way. Not all results are given here.
Hi there, use one of these labels in your reply, thanks! 1 (active), -1 (inactive)

[in] Would you mind telling me which call this test gave CN(C)C(=O)c1ccc(-c2cncnc2Nc2ccccc2)cc1 ?
[out] -1

[in] Record request — test call for Cc1cccc(CNc2ncncc2-c2ccc3c(c2)OCO3)c1
[out] 1

[in] Answer briefly: the call reported for OC[C@@H]1NC[C@@H](O)[C@@H](O)[C@H]1O in this assay.
[out] -1

[in] I would be grateful if you could indicate the recorded call for COc1cccc(-c2cc(C(F)(F)F)nc(N3CCN(c4ccccc4)CC3)n2)c1 .
[out] -1

[in] Fill in: this test's call for Cn1c(-c2ccc3c(c2)OCO3)cnc1NCc1ccccc1 is ___
[out] 1

[in] Call for entry COc1ccccc1N1CCN(c2nc(-c3ccccc3)cc(C(F)(F)F)n2)CC1 :
[out] -1

* * *

TARGET ENTITY: Cytochrome P450 2D6 (Homo sapiens) (UniProt P10635)
EXPERIMENTAL DETAILS: Cytochrome panel assay with activity outcomes
CONDITION SUMMARY: recombinant CYP, pro-luciferin dealkylation, luminescence, p450-cyp2d6; series mostly up to 57.1 µM
The campaign covered roughly 16,000 compounds. About 2,600 (16%) were called active. Inconclusive results (about 20%) are left out. The call rests on the fitted dose curve; in most records, active means well fitted curve in the direction sought with a large enough effect; inconclusive means small, poorly fitted or top-dose-only effect, or effect the other way; inactive means no such curve, though single readings can be large or run the other way. A selection follows.
Reply using exactly one outcome from true = active, false = inactive

[in] // outcome(item) with item = COc1ccccc1OCCn1cc(C(=O)c2ccco2)c2ccccc21
[out] false

[in] Each compound tested received a call. Report the one for CCCCN(C)CCCNC(=O)CS(=O)Cc1nc(-c2ccc(OC)c(OC)c2)oc1C (stereo unspecified) .
[out] true

[in] Give the logged outcome of this assay for the following compound: CCCCC1CC(/C(C)=N/NC(N)=O)OC1=O (stereo unspecified)
[out] false

[in] What was the test verdict on CCOc1ccc(NC2=NCC(=O)N2Cc2cccs2)cc1 ?
[out] true

[in] Lab log entry: CCCN(CCC)CCCNC(=O)CS(=O)Cc1nc(-c2ccc(OC)c(OC)c2)oc1C (stereo unspecified) — outcome as called in the assay?
[out] true

[in] Kindly provide the recorded test outcome for the following compound: O=c1c2ccccc2sc2c(CO)ccc(NCCN3CCCCC3)c12
[out] true

[in] Query: recorded result category for CCN1C(=O)c2cccc3c(NC(=O)c4cccc(N5C(=O)CCC5=O)c4)ccc1c23 in this test
[out] false

[in] Write down the call the test reported for this compound. Item: O=C(Nc1ccccc1N1CCN(C(=O)c2ccc(Cl)cc2)CC1)c1cc(Br)ccc1Cl
[out] false

[in] Any idea what this test logged for Cc1c(N(C)CS(=O)(=O)O)c(=O)n(-c2ccccc2)n1C ?
[out] false

[in] # lookup: test call for Cc1ccc(N=Nc2c(=O)[nH]n3c(C)cc(C)nc23)cc1
[out] false

[in] Check the results log: what was the call for COc1cc(NC(=O)c2cc3ccccc3o2)c(OC)cc1Br ?
[out] false

* * *

TARGET ENTITY: Cytochrome P450 2D6 (Homo sapiens)
EXPERIMENTAL DETAILS: Cytochrome panel assay with activity outcomes; on activity, negative = inhibition: on the % scale 0 is the no-effect control and ±100 the full control effect
CONDITION SUMMARY: recombinant CYP, pro-luciferin dealkylation, luminescence, p450-cyp2d6; series mostly up to 57.1 µM
Among all 16,000 compounds or so, about 2,600 (16%) were called active. About 20% were inconclusive and are not listed. A selection follows.
REPORTED ENDPOINT: activity, negative = inhibition

Just so you know, measured activity, negative = inhibition for O=C1C2[C@@H](c3ccccc3)N[C@@H](c3ccccc3)C1[C@H](c1ccccc1)N[C@H]2c1ccccc1 came out at -8.91% [at 11.4 µM] (inactive)

In plain terms, Cc1cc(Cl)nc(NC(=O)CSc2ccc(Cl)cc2)n1 has a documented activity, negative = inhibition of 18.7% [at 11.4 µM] (inactive)

GET /value?item= O=C(O)[C@@H]1[C@@H](C(=O)NCc2ccncc2)[C@@H]2C=C[C@@H]1O2 &field=activity, negative = inhibition returns -9.91% [at 11.4 µM] (inactive)

Measured activity, negative = inhibition of OC[C@@H](O)[C@@H](O)[C@@H](O)[C@@H](O)c1nc2ccc(Cl)cc2[nH]1 : 19.4% [at 11.4 µM] (inactive)

In plain terms, O=S(=O)(O)c1cc(O)c2c(N=Cc3ccccc3O)cc(S(=O)(=O)O)cc2c1 has a documented activity, negative = inhibition of -8.82% [at 11.4 µM] (inactive)

// recorded activity, negative = inhibition for CC1(C)O[C@@H]2O[C@H]([C@H](O)CO/N=C3/[C@H]4O[C@@H]4[C@@H](O)[C@H]4[C@H]3CCn3c(=O)n(-c5ccccc5)c(=O)n34)[C@@H](O)[C@@H]2O1 : 7.2% [at 11.4 µM] (inactive)

GET /value?item= Cc1c(C)c(C)c(CC2(C)CSC2)c(CC2(C)CSC2)c1C &field=activity, negative = inhibition returns 7.89% [at 11.4 µM] (inactive)

Reported activity, negative = inhibition of CC(C)(C)N1C(=O)[C@H]2[C@H]3[C@H](O)[C@H](O)C/C(=N/NC(=O)OCc4ccccc4)[C@H]3CC[C@@H]2C1=O : 6.89% [at 11.4 µM] (inactive)

Documented activity, negative = inhibition of NC(N)=NC(N)=Nc1c(F)c(F)c(F)c(F)c1F : 13.6% [at 11.4 µM] (inactive)

The compound listed as O=C1C[C@H](c2ccccc2)[C@@H](c2ccc(Br)cc2)O1 shows activity, negative = inhibition equal to -20.8% [at 11.4 µM] (inactive)

Briefly, activity, negative = inhibition measured for CO[C@@H]1COC(=O)C/C=C\[C@@H](C)[C@@H]2C=C[C@H](O)[C@@H](COC(=O)CCC[C@H]1C)O2 : 4.34% [at 11.4 µM] (inactive)

Form field activity, negative = inhibition, entry COc1cc(Cl)c(CC(=O)c2c[nH]c3ccccc23)cc1OC : -18% [at 11.4 µM] (inactive)

# activity, negative = inhibition of CCN1C(=O)[C@H]2[C@H]3[C@H](O)[C@H](O)C/C(=N/OC[C@@H](O)[C@H]4O[C@H]5OC(C)(C)O[C@H]5[C@@H]4O)[C@@H]3CC[C@@H]2C1=O = 7.29% [at 11.4 µM] (inactive)

// O=C(O)CNc1ccc(C(=O)O)cc1 : activity, negative = inhibition value = 8.05% [at 11.4 µM] (inactive)

// recorded activity, negative = inhibition for Nc1ccc(N=Nc2ccc(-c3ccc(O)cc3)cc2)c2ccc(S(=O)(=O)O)cc12 : 3.2% [at 11.4 µM] (inactive)

GET /value?item= O=C(O)CNC(=O)c1ccccc1O &field=activity, negative = inhibition returns 7.44% [at 11.4 µM] (inactive)

# activity, negative = inhibition of CC(C)=CCC/C(C)=C/CO/N=C1/C[C@@H](O)[C@@H](O)[C@@H]2[C@@H]3C(=O)N(Cc4ccc5c(c4)OCO5)C(=O)[C@H]3CC[C@@H]12 = -7.94% [at 11.4 µM] (inactive)

The value of activity, negative = inhibition measured for the compound O=S(=O)(O)c1cc(N=[N+]([O-])c2cc(S(=O)(=O)O)c3ccccc3c2)cc2ccccc12 turned out to be -20.1% [at 11.4 µM] (inactive)

* * *

TARGET ENTITY: Cytochrome P450 2D6 (Homo sapiens) (UniProt P10635)
EXPERIMENTAL DETAILS: Cytochrome panel assay with activity outcomes
CONDITION SUMMARY: recombinant CYP, pro-luciferin dealkylation, luminescence, p450-cyp2d6; series mostly up to 57.1 µM
Hit rate of the full screen: of about 16,000 compounds, about 2,600 (16%) were called active. Not shown: some 20% with an inconclusive outcome. Not all results are given here.
REPORTED ENDPOINT: AC50

Guide cases for AC50, answers given:
O=C(Cc1ccccc1)Nc1nc2ccc(Cl)cc2c2nc(-c3ccco3)nn12	10 µM (active)
CCOC(=O)c1oc2ccccc2c1NC(=O)c1ccc2c(c1)OCO2	3.55 µM (active)
C=CCSc1ncccc1C(=O)NCc1ccc(C)cc1	inactive
COC(=O)c1[nH]c2cc(OC)ccc2c1NC(=O)c1ccc2c(c1)OCO2	22.4 µM (active)
O=C(c1cccc(C(F)(F)F)c1)N1CCC(O)(CS(=O)(=O)Cc2ccccc2)CC1	inactive
CCOC(=O)c1[nH]c2cc(OC)c(OC)cc2c1NC(=O)c1ccc2c(c1)OCO2	inactive
CC1(C)CC2(CC(C)(C(=O)CSc3nc4ccccc4s3)OC2=O)C(=O)O1 (stereo not given)	inactive
O=C(Cc1ccc(Cl)cc1)NNC(=O)Nc1cccc2ccccc12	inactive

Query O=Nc1ccc(NOC(=O)c2ccc(Br)cc2)cc1 yields AC50 of inactive

// field: AC50; key: O=C1c2ccccc2C(=O)N1CCCCN(C(=O)c1cccc([N+](=O)[O-])c1)c1ccc(Cl)cc1 ; value = inactive
